- MEASUREMENT_PARAMETERS: in 1,4-dioxane, 308.15 K
MEASURED_ENDPOINT: solubility (mole fraction)
Give bare numbers.

# solubility (mole fraction) of N#CCc1ccccc1[N+](=O)[O-] = 0.278

----------
- MEASUREMENT_PARAMETERS: in methanol, 293.15 K
MEASURED_ENDPOINT: solubility (mole fraction)
One number for each entry.

# solubility (mole fraction) of N#CCc1ccccc1[N+](=O)[O-] = 0.0131

----------
- MEASUREMENT_PARAMETERS: in acetone, 318.15 K
MEASURED_ENDPOINT: solubility (mole fraction)
One number for each entry.

# solubility (mole fraction) of N#CCc1ccccc1[N+](=O)[O-] = 0.385
